assay: Pharmacokinetics after single intravenous and single oral dose in rats; format: in vivo; conditions: rat, plasma; oral bioavailability; male Sprague-Dawley rats, single iv (nominal 1 mg/kg) and single po (nominal 5 mg/kg) dose, 10% DMSO/10% Cremophor EL/80% SWFI
// Not fulfilled strictly below 30% in bioavailability; Fulfilled otherwise

Take a look at these entries with their results.
> print(dat)
                                   compound  category.label
1  Cn1ccc(OCC23CCOC(CNc4cccc5c(N)nccc45)(C2)C3)cc1=O [Example 10906]       Fulfilled
2  Cn1ccc(OCC23CN(C(=O)OCc4ccccc4)C(CNc4cccc5c(N)nccc45)(C2)C3)cc1=O [Example 12001]   Not fulfilled
3  Nc1nccc2c(NCC34COC(COc5ccc6nccn6c5)(C3)C4)cccc12 [Example 2022]       Fulfilled
4  Nc1nccc2c(NCC34CC(COc5ccc6nccn6c5)(CO3)C4)cccc12 [Example 6602]       Fulfilled
5  Cc1cnc2ccc(OCC34COC(CNc5cccc6c(N)nccc56)(C3)C4)cn12 [Example 6624]   Not fulfilled
6  Nc1nccc2c(NCC34CC(COc5ccn6ccnc6c5)(CCO3)C4)cccc12 [Example 10901]   Not fulfilled

Exam item: Quick check: does Cn1ccc(OCC23CN(C(=O)CCc4ccccc4)C(CNc4cccc5c(N)nccc45)(C2)C3)cc1=O [Example 12016] have bioavailability greater than or equal to 30%?
Marked response: Not fulfilled

Exam item: Quick check: does Nc1nccc2c(NCC34COC(COc5ccn6ccnc6c5)(C3)C4)cccc12 [Example 2020] have bioavailability greater than or equal to 30%?
Marked response: Not fulfilled

Exam item: Quick check: does Nc1nccc2c(NCC34CC(COC5CCn6ccnc6C5)(C3)C4)cccc12 (single isomer, unassigned) [Example 1002.1] have bioavailability greater than or equal to 30%?
Marked response: Fulfilled
